FYI, the data here is from patent US20260234276A1.

TARGET_UNDER_TEST: T1, streptavidin (UniProt P22629 37-163, limits assumed)
T1 construct: control well without peptide
ASSAY_NAME: ELISA, soluble Fab on streptavidin-coated control well without peptide
Method: The wells of a microtiter plate were coated with 200 ng streptavidin protein in 100 μL Coating Buffer (0.1 M NaHCO₃, pH 8.6), and then incubated overnight at 4° C. For negative control, the wells were coated with PBS to determine non-specific binding. After shaking out the coating solution, the wells were washed three times with washing buffer (0.1% Tween 20-PBS). To prevent non-specific binding, 200 μL Blocking Buffer (3% BSA-PBS) was adding and incubated for 2 h at 37° C. […]
ASSAY_ENDPOINT: Optical Density (OD450)
Form entry: value (OD450) — number only.

BINDER: 3-62 (Fab, V domains shown, soluble Fab from phage display library huFabL-4, Flag tag) VH: QVQLQQSGPGLVKPSQTLSLTCAISGDSVSNNSAAWNWIRQSPSRGLEWLGRTYYRSKWYTDYAVSVKSRITINPDTSKNQFSLQLNSVTPEDTAVYYCARASGYSSGQVEYWGKGTLVTVSS VL: QSVLTQPPSVSAAPGQKVTISCSGSSSNIGNNYISWYQQVPGTAPKLLIYGNNKRPSGIPARFSGSKSGTSATLDITGLQIGDEADYYCGTWESSLRAVVFGGGTKLTVLG
VALUE_UNITS: OD450
Optical Density: 0.07

Endpoint output: Optical Density of 3-72 (Fab, V domains shown, soluble Fab from phage display library huFabL-4, Flag tag) VH: QVTLKESGGGVVQPGRSLRLSCAASGFTFSSYAMHWVRQAPGKGLEWVAVISYDGSNKYYADSVKGRFTISRDNSKNTLYLQMNSLRAEDTAVYYCASSLLGAFDVWGKGTLVTVSS VL: DVVMTQSPLSLPVTPGEPASISCRSSQSLLHSNGYNYLSWYLQRPGQSPQLLMYLGSKRASGVPDRFSGSGSGTDFTLEISRVEAEDVGIYYCMQALQTPLTFGGGTKVEIKR . Value? 0.09

// query: 3-71 (Fab, V domains shown, soluble Fab from phage display library huFabL-4, Flag tag) VH: QVQLQESGGGLVKPGRSLRLSCTASGFTFSSYAMSWVRQAPGKGLEWVSVNSGSGGTTYYADSVKGRFTISRDNAKNTLYLQMNSLRAEDTAVYYCARVSRYYDILTGYVYAFDIWGKGTLVTVSS VL: QSVVTQPPSVSAAPGQKVSISCSGSSSNIGKNYVSWYQQLPGTAPKLLIYDNNKRPSGIPDRFSGSKSGTSATLGITGLQAEDEADYYCQSYDRSLGVVFGGGTKLTVLG 0.08
